Numbers sourced from patent US20140322218A1.

Biological target: T1, huCDH19(44-249)::muCDH19(248-770), Flag-tagged, on 293T cells (human/mouse chimera)
T1 construct: also called Hu EC1-2; C137896
Experiment: FACS, transfected 293T
RECORDED_ENDPOINT: binding result

anti-CDH19 antibody 2G6 (Ab ID 13588) (antibody, human IgG1, lambda, V domains shown) VH: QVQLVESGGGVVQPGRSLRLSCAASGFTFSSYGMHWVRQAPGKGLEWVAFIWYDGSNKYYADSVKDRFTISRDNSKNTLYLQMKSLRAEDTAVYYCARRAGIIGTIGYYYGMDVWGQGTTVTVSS VL: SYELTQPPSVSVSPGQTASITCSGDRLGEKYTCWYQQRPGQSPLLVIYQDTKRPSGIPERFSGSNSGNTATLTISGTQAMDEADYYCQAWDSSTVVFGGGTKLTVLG    binds
hu anti-<huCDH19> 4A9 VH::huIgG1z / 4A9 (1-239)(F47L) VL::huLLC-C1 (Ab ID 14056) (antibody, V domains shown, Engineered variant of 4A9) VH: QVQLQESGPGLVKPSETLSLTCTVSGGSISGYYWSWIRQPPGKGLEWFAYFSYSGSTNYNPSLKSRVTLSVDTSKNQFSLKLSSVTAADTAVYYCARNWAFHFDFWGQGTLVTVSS VL: QSVLTQPPSVSGAPGQRVTISCTGSSSNIGTGYAVHWYQQLPGTAPKLLIYGNNNRPSGVPDRFSGSKSGTSASLAITGLQAEDEADYYCQSYDSRLSGWVFGGGTKLTVLG    binds
hu anti-<huCDH19> 4A9 (1-468)(F55I,A56G) VH::huIgG1z / 4A9 (1-239)(F47L) VL::huLLC-C1 (Ab ID 14057) (antibody, V domains shown, Engineered variant of 4A9) VH: QVQLQESGPGLVKPSETLSLTCTVSGGSISGYYWSWIRQPPGKGLEWIGYFSYSGSTNYNPSLKSRVTLSVDTSKNQFSLKLSSVTAADTAVYYCARNWAFHFDFWGQGTLVTVSS VL: QSVLTQPPSVSGAPGQRVTISCTGSSSNIGTGYAVHWYQQLPGTAPKLLIYGNNNRPSGVPDRFSGSKSGTSASLAITGLQAEDEADYYCQSYDSRLSGWVFGGGTKLTVLG    binds
